# Study System: T1, cynomolgus monkey C-MET on stably transfected CHO-K1 cells (cynomolgus monkey, UniProt A0M8R7 25-1381 (Papio anubis entry))
# T1 construct: also called cycMET; cyno C-MET+ CHO-K1 cells
# T1 sequence (A0M8R7 25-1381 S170N/I621T limits assumed): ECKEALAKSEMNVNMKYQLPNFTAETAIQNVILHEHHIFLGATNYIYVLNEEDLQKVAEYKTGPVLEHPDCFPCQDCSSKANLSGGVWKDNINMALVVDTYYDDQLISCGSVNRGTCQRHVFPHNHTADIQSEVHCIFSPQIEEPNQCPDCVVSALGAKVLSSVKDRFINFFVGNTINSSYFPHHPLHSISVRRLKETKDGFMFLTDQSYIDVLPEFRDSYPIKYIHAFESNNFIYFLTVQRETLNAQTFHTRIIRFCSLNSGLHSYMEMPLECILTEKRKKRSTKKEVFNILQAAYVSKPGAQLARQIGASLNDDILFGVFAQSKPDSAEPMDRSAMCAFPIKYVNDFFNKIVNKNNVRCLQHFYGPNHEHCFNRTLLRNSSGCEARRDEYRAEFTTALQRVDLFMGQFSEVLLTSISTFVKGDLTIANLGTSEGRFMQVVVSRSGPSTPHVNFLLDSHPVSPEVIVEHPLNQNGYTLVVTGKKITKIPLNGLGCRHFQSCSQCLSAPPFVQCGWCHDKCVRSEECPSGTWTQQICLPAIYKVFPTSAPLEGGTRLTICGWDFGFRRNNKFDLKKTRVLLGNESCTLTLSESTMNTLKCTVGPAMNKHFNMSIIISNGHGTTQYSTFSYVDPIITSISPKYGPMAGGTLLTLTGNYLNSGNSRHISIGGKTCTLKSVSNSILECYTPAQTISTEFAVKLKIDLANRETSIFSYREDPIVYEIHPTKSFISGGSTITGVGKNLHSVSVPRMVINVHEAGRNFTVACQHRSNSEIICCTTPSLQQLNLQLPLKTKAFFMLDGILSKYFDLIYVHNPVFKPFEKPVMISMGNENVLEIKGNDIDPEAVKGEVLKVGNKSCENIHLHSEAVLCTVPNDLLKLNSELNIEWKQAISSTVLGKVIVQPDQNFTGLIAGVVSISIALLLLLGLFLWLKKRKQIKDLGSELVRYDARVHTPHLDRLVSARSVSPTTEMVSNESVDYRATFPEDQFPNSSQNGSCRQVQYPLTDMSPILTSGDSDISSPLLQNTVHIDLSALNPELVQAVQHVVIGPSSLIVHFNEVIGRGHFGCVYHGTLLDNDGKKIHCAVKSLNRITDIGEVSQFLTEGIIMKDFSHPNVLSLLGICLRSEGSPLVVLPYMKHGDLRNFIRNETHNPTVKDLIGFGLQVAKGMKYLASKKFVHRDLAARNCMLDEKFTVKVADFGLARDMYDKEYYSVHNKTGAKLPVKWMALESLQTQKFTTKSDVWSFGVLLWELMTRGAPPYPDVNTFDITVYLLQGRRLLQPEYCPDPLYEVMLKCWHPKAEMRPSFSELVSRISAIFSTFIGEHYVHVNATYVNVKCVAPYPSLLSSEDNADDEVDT
# Assay Notes: flow cytometry, C-MET CHO-K1 cells
# maximum MFI, fold over Isotype IgG4 background annotations

MH7-3 (antibody, human IgG4, V domains shown) VH: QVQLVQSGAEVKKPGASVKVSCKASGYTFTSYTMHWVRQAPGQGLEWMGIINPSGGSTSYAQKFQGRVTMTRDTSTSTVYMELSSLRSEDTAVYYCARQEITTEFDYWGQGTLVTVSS VL: EIVLTQSPGTLSLSPGERATLSCRASQSVSSYAQSYLHWYQQKPGQAPRLLIYRGSTRETGIPDRFSGSGSGTDFTLTISRLEPEDFAVYYCQQSKESPLTFGGGTKVEIK :: > 10 fold
MH8 (antibody, IgG4, V domains shown) VH: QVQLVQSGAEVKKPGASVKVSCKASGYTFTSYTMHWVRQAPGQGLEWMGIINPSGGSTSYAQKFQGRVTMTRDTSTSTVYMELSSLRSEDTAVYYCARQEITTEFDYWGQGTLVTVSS VL: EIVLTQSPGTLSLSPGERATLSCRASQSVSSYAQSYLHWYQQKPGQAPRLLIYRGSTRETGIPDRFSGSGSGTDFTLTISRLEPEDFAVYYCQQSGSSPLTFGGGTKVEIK :: > 10 fold

Next up:
binder MH2 (antibody, IgG4, V domains shown) VH: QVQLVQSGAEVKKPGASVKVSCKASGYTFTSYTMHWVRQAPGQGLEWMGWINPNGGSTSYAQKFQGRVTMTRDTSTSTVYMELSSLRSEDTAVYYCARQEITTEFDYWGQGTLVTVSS VL: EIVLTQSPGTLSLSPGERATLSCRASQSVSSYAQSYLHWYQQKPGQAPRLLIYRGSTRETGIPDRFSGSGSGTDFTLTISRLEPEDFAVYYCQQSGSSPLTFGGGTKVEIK , maximum MFI, fold over Isotype IgG4 background observed: > 10 fold
